The values you see were collected from patent US20240368135A1.

Molecular target: human NaV 1.8 (Homo sapiens)
Assay: E-VIPR assay detecting and measuring NaV inhibition properties
Format: cell-based
Settings: HEK cells expressing truncated human NaV 1.8; no human serum; read-out: IC50 in the E-VIPR Assay
pIC50: −log10 of the molar value.
assay_readout: pIC50

These recorded examples may help you get a feel for the data.
COc1c([C@H]2[C@H](C(=O)Nc3ccnc(C(F)CO)c3)O[C@@](C)(C(F)(F)F)[C@H]2C)ccc(F)c1F (single isomer, unassigned) [Compound 439]    > 8.00
COCC(O)c1cc(NC(=O)[C@@H]2O[C@@](C)(C(F)(F)F)[C@@H](C)[C@H]2c2ccc(F)c(F)c2OCCN2CC3CC(C2)O3)ccn1 (single isomer, unassigned) [Compound 610]    7.00 to 8.00
COCCOc1c([C@H]2[C@H](C(=O)Nc3ccnc(C(O)CO)c3)O[C@@](C)(C(F)(F)F)[C@H]2C)ccc(F)c1F (stereo partly drawn) [Compound 647]    > 8.00
C[C@H]1[C@@H](c2ccc(F)c(F)c2OCCO)[C@H](C(=O)Nc2cnc3nnn(C)c3c2)O[C@@]1(C)C(F)(F)F [Compound 565]    7.00 to 8.00
COc1c([C@H]2[C@H](C(=O)Nc3cn(C)cn3)O[C@@](C)(C(F)(F)F)[C@H]2C)ccc(F)c1F [Compound 318]    ≤ 6.00

API: the following record is the query input.
INPUT: So what does the record say about pIC50 for COc1c([C@H]2[C@H](C(=O)NC3CCN(C(C)=O)C3)O[C@@](C)(C(F)(F)F)[C@H]2C)ccc(F)c1F (stereo partly drawn) [Compound 298] ?
OUTPUT: ≤ 6.00

---

Molecular target: human NaV 1.8 (Homo sapiens, UniProt Q9Y5Y9)
Sequence (Q9Y5Y9 126-399 limits assumed): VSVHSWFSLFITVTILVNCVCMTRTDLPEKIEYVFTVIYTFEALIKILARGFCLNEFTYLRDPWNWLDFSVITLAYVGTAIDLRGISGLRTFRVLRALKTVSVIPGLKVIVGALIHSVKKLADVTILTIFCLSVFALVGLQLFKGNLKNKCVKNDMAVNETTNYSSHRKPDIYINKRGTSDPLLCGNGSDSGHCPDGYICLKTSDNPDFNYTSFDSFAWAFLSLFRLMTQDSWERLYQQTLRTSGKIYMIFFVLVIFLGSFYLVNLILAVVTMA
Sequence (Q9Y5Y9 660-890 limits assumed): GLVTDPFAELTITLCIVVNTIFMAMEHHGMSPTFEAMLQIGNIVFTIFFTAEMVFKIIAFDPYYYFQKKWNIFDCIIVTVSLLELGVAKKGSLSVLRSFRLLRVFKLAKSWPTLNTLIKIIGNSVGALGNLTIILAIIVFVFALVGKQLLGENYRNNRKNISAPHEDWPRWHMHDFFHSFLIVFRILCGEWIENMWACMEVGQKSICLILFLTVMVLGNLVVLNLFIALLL
Sequence (Q9Y5Y9 1148-1722 limits assumed): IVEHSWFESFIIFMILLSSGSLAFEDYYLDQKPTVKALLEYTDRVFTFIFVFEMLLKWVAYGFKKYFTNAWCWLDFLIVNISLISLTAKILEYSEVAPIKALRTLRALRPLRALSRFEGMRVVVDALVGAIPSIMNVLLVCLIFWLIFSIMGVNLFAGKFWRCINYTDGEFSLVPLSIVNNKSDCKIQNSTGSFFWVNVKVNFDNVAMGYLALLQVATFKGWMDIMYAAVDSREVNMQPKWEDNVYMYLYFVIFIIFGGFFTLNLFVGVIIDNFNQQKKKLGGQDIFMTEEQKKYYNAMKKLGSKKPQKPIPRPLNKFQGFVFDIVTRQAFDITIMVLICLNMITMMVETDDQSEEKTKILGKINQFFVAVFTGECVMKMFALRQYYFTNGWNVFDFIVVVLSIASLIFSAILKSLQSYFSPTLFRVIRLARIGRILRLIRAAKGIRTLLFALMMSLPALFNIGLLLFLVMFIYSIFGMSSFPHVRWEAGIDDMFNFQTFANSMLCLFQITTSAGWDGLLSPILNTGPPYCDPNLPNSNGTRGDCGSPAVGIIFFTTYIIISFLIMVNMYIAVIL
Assay: E-VIPR assay detecting and measuring NaV inhibition properties
Type: cell-based
Conditions: HEK cells expressing truncated human NaV 1.8; no human serum; read-out: IC50 in the E-VIPR Assay
pIC50: −log10 of the molar value.
assay_readout: pIC50

As a guide, the following entries are already answered.
COc1c([C@H]2[C@H](C(=O)Nc3cnnc(N4C(=O)CN(C)C[C@H]4C)c3)O[C@@](C)(C(F)(F)F)[C@H]2C)ccc(F)c1F [Compound 384]    > 8.00
Cc1nocc1NC(=O)[C@@H]1O[C@@](C)(C(F)(F)F)[C@@H](C)[C@H]1c1ccc(F)c(F)c1OCCN1CC2CC(C1)O2 [Compound 633]    7.00 to 8.00
COc1c([C@@H]2[C@@H](C(=O)Nc3ccnc(S(=O)(=O)N(C)C)c3)O[C@](C)(C(F)(F)F)[C@@H]2C)ccc(F)c1F (stereo in doubt) [Compound 448]    ≤ 6.00
Cc1nn(S(C)(=O)=O)cc1NC(=O)[C@@H]1O[C@@](C)(C(F)(F)F)[C@@H](C)[C@H]1c1ccc(F)c(F)c1OCCO [Compound 538]    > 8.00
COCC(O)c1cc(NC(=O)[C@@H]2O[C@@](C)(C(F)(F)F)[C@@H](C)[C@H]2c2ccc(F)c(F)c2OCCN2CC(F)C2)ccn1 (single isomer, unassigned) [Compound 608]    7.00 to 8.00
COc1c([C@H]2[C@H](C(=O)Nc3ccc(C(F)CO)nc3)O[C@@](C)(C(F)(F)F)[C@H]2C)ccc(F)c1F (single isomer, unassigned) [Compound 438]    7.00 to 8.00
COc1c([C@H]2[C@H](C(=O)Nc3ccc(N)nc3)O[C@@](C)(C(F)(F)F)[C@H]2C)ccc(F)c1F [Compound 523]    > 8.00
COc1c(C2C(C(=O)Nc3ccnc(C(O)CO)c3)OC(C)(C(F)(F)F)C2C)ccc(F)c1F (single isomer, unassigned) [Compound 44]    > 8.00

INPUT: I'm curious: which pIC50 was measured for COc1c([C@H]2[C@H](C(=O)Nc3ccnc(N4CC(N)CC4=O)c3)O[C@@](C)(C(F)(F)F)[C@H]2C)ccc(F)c1F (single isomer, unassigned) [Compound 496] tested on human NaV 1.8 (Homo sapiens, UniProt Q9Y5Y9)?
OUTPUT: 7.00 to 8.00

INPUT: Request - read-out pIC50 | tested on human NaV 1.8 (Homo sapiens, UniProt Q9Y5Y9) | compound COc1c([C@H]2[C@H](C(=O)Nc3cc(C4CNCCO4)ncc3F)O[C@@](C)(C(F)(F)F)[C@H]2C)ccc(F)c1F (single isomer, unassigned) [Compound 350]
OUTPUT: 7.00 to 8.00
